The measured values listed here are drawn from paper PMC9482650.

# assayed target: FRMPD4, Q14CM0
# Sequence (Q14CM0 67-160): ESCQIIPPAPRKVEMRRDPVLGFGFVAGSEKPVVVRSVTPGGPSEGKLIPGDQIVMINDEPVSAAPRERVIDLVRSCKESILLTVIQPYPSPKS
# method summary: holdup assay
# Design: key: below the threshold = too weak to quantify, mostly under pKd 3.1 to 4
# test parameters: plain residues with an end cap or a label only (N-terminal biotin on a linker: ado-ado)
reported property: pKd

- NISARRFTLC [FAM167B, Q9BTA0]: below the threshold
- TFSRRPKTRV [CD226, Q15762]: below the threshold
- TNSKQGETTV [FZD1, Q9UP38]: below the threshold
- NTALVESEDL [PALLS, Q8WX93]: 3.65
- DYSNLRETDI [ADRA1D, P25100]: below the threshold
- KEKASTETEC [TRPM1, Q7Z4N2]: below the threshold
- KIEDVEITLV [FCHSD2, O94868]: below the threshold
- KAEEKPPSKV [SCN4B, Q8IWT1]: below the threshold
- SQDPKKPSRV [CBY2, Q8NA61]: below the threshold
- HYPASPDSWV [CTNND2, Q9UQB3]: 3.76
- FLVTEFNVML [DFNB31, Q9P202]: 4.9
- PSDSVGKDVF [EGLN1, Q9GZT9]: below the threshold
- VKQYADVEGF [HNRNPK, P61978;P61978-2]: below the threshold
- FHSIKQSTAV [CRHR1, P34998]: below the threshold
- PALKNGQYWV [CSPG4, Q6UVK1]: 3.68
- GVHSNDHSVV [LPAR1, Q92633]: below the threshold
- GTMFLRETSL [GUCY1A2, P33402]: 4.35
- RGKNRRQSIF [CDK18, Q07002]: 3.65
- EPAKETTTNV [SLC2A3, P11169]: 3.52
- GSQSQVETEA [FKBP4, Q02790]: below the threshold
- PDSYHRRDFW [U2AF2, P26368]: 3.71
- KLQNPNQSVV [TYRP1, P17643]: below the threshold
- QRYPGNQTTC [CCL24, O00175]: below the threshold
- IQISELETNV [SLC1A7, O00341]: 3.56
- DAAHHDESNC [FMNL3, Q8IVF7]: below the threshold
- ATKDKKITTV [EXOC4, Q96A65]: 3.55
- MLPANYVEAI [NEB, P20929]: below the threshold
- GQNMTVSVVI [PRLHR, P49683]: below the threshold
- VISSDDLTEL [CAPN6, Q9Y6Q1]: 4.73
- MQILSKPEFI [NPSR1, Q6W5P4]: below the threshold
- EKPIDSETKM [SLC1A3, P43003]: below the threshold
- AHGSTRDQSI [KCNB1, Q14721]: below the threshold
